Hello, the source for this data is the supplement of paper PMC6897291, in case you need it.

molecules and their reported growth inhibition by drug alone
# Tested on: RIVA
# Test protocol: growth inhibition by drug alone (1 - RLU/untreated control) (fraction); higher = stronger inhibition
# Details: 100 nM; time (day): 5; 177Lu-lilotomab satetraxetan 0 ug/ml
Structures can show the parent of a compound that is named as a salt.
Recorded metric: growth inhibition by drug alone

>>> numeric_value("Cc1ccc(NC(=O)c2cccc(C(C)(C)C#N)c2)cc1Nc1ccc2ncn(C)c(=O)c2c1")
-0.279
>>> numeric_value("CNC(=O)c1cc(Oc2ccc(NC(=O)Nc3ccc(Cl)c(C(F)(F)F)c3)c(F)c2)ccn1 [Regorafenib (BAY 73-4506)]")
0.302
>>> numeric_value("CC(=O)O[C@H]1C(=O)[C@@]2(C)[C@H]([C@H](OC(=O)c3ccccc3)[C@]3(O)C[C@H](OC(=O)[C@H](O)[C@@H](NC(=O)c4ccccc4)c4ccccc4)C(C)=C1C3(C)C)[C@]1(OC(C)=O)CO[C@@H]1C[C@@H]2O [Paclitaxel (Taxol)]")
0.969
>>> numeric_value("Nc1nccc(Oc2ccc(NC(=O)c3c[nH]cc(-c4ccc(F)cc4)c3=O)cc2F)c1Cl")
-0.483
>>> numeric_value("CC(C)Oc1cc(Nc2nc(N[C@@H](C)c3ccc(F)cn3)ncc2Cl)n[nH]1")
-0.215
>>> numeric_value("COc1cc2ncnc(Nc3ccc(F)c(Cl)c3)c2cc1NC(=O)/C=C/CN1CCCCC1")
-0.331
>>> numeric_value("CCc1ccc(CCOc2ccc(CC3SC(=O)NC3=O)cc2)nc1 (stereo unspecified) [Pioglitazone (Actos)]")
-0.369
>>> numeric_value("CC(=O)[C@]1(O)Cc2c(O)c3c(c(O)c2[C@@H](O[C@H]2C[C@H](N)[C@H](O)[C@H](C)O2)C1)C(=O)c1ccccc1C3=O [Idarubicin HCl]")
0.851
>>> numeric_value("Cc1ccc(S(=O)(=O)C=CC#N)cc1")
0.00106
>>> numeric_value("CC(=O)O[C@]1(C(C)=O)CC[C@H]2[C@@H]3C=C(C)C4=CC(=O)CC[C@]4(C)[C@H]3CC[C@@]21C [Megestrol Acetate]")
-0.0299
>>> numeric_value("COc1cc2c(NC3CCN(C)CC3)nc(N3CCCN(C)CC3)nc2cc1OCCCN(C)C")
-0.528
>>> numeric_value("CN(C)Cc1ccc(-c2nc3cccc4c3n2CCNC4=O)cc1")
0.00266
>>> numeric_value("Cc1ccc(-c2cc(C(F)(F)F)nn2-c2ccc(S(N)(=O)=O)cc2)cc1 [Celecoxib]")
-0.157
>>> numeric_value("COc1ccc(CCN(C)CCCOc2ccc(S(=O)(=O)c3c(C(C)C)n(C)c4ccccc34)cc2)cc1OC")
-0.308
>>> numeric_value("COC(=O)c1ccc2c(C(=Nc3ccc(N(C)C(=O)CN4CCN(C)CC4)cc3)c3ccccc3)c(O)[nH]c2c1 [BIBF1120 (Vargatef)]")
-0.347
>>> numeric_value("COCC[n+]1c2c(n(Cc3cnccn3)c1C)C(=O)c1ccccc1C2=O")
0.98
